// IC50 lookup, one value per entry
- target.or.test.system: Recombinant human PI3Kγ (full length human PI3K p110γ) (Homo sapiens, UniProt P48736)
- Construct: full length human PI3K p110γ fused with a His6-tag at the C-terminus; His6 (C); purchased ALEXIS BIOCHEMICALS #201-055-C010; host or cells: S. frugiperda 9 insect cells
- Sequence (P48736 whole entry, the tested form may be a part): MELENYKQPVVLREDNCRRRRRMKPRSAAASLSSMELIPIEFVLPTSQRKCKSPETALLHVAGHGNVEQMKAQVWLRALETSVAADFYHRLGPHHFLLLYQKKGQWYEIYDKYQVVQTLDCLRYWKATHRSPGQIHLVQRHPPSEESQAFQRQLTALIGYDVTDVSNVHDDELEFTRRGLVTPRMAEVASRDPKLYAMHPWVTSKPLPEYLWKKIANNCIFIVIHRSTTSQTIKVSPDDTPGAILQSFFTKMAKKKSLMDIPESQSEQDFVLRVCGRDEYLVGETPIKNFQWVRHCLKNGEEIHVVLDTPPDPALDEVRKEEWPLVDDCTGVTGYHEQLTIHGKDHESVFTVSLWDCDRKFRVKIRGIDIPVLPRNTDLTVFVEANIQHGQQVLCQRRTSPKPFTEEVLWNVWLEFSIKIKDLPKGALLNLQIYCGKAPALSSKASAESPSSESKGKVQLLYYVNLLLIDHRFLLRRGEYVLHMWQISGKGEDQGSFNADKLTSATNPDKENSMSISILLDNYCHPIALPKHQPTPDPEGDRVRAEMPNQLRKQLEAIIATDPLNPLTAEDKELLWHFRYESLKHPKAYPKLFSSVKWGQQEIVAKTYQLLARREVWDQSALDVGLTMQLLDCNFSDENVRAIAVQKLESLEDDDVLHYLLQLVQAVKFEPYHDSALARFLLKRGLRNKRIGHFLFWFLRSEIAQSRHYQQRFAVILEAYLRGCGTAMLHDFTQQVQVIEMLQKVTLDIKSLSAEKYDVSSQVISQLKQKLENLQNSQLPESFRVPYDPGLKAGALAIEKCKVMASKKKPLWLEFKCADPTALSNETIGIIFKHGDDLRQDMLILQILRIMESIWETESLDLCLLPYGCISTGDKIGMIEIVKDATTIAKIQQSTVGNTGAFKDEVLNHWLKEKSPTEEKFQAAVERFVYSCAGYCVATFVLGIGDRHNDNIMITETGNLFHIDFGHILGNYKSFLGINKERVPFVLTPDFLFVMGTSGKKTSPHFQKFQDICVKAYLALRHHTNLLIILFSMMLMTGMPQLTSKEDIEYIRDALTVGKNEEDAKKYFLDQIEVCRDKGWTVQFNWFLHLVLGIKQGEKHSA
- assay.method.text: Kinase assay of PI3Kγ (solid-phase lipid kinase assay)
- Type: biochemical
- experimental.conditions: Table 1, isozyme not given; read-out: in vitro

>  <smiles.string>
Cc1cc(Br)c2c(c1)C1=NCCN1C(/C=C(\O)c1ccc3[nH]cnc3c1)=N2

>  <IC50>
0.1 to 0.5 µM

$$$$
>  <smiles.string>
Cc1cccc2c1N=C(/C=C(\O)c1cccnc1)N1CCN=C21

>  <IC50>
0.1 to 0.5 µM

$$$$
>  <smiles.string>
COC(=O)CCCOc1c(OC)ccc2c1N=C(/C=C(\O)c1cccnc1)N1CCN=C21.Cl

>  <IC50>
< 0.1 µM

$$$$
>  <smiles.string>
COc1c(OCCN2CCCC2)ccc2c1N=C(/C=C(\O)c1cccnc1)N1CCN=C21

>  <IC50>
< 0.1 µM

$$$$
>  <smiles.string>
Cc1ccc2c(c1OCCN1CCOCC1)N=C(/C=C(\O)c1cccnc1)N1CCN=C21

>  <IC50>
0.1 to 0.5 µM

$$$$
>  <smiles.string>
O/C(=C\C1=Nc2cc(N3CCOCC3)ccc2C2=NCCN12)c1cncc(O)c1

>  <IC50>
< 0.1 µM

$$$$
>  <smiles.string>
CC(=O)Nc1ccc(/C(O)=C/C2=Nc3c(Br)cc(C)cc3C3=NCCN23)cn1.Cl

>  <IC50>
< 0.1 µM

$$$$
>  <smiles.string>
Cl.O/C(=C\C1=Nc2ccc(O)cc2C2=NCCN12)c1cccnc1

>  <IC50>
< 0.1 µM

$$$$
>  <smiles.string>
COc1cc(OC)c2c(c1)C1=NCCN1C(/C=C(\O)c1cccnc1)=N2

>  <IC50>
< 0.1 µM

$$$$
>  <smiles.string>
COc1c(OCCN(C)C)ccc2c1N=C(/C=C(\O)c1cccnc1)N1CCN=C21

>  <IC50>
0.1 to 0.5 µM

$$$$
